test system: HEK-293T; assay: Multiplex assay against HEK293T; type: toxicity, cell-based; conditions: human, 48 h, 1 µM, compound concentration 1 uM, replicate 2
reported.metric: Population Apoptotic (%)

[
  {
    "structure": "CC(C)(C)c1ccc(CSc2cnn(C(C)(C)C)c(=O)c2Cl)cc1",
    "quantitative.readout": 30
  },
  {
    "structure": "CSc1nc(NC2CCCC2)c([N+](=O)[O-])c(NC2CCCC2)n1",
    "quantitative.readout": 30
  },
  {
    "structure": "C[C@H](NC(=O)CNC(=O)c1cccc(Cl)c1)c1ccccc1",
    "quantitative.readout": 30
  }
]
